From: paper PMC8016998

Tested on: MDRAB clinical strain AF11
Type: cell-based, Acinetobacter baumannii
Experimental setup: 24 h
No end group written: not given here.
Property: MIC (µg/mL)

substance="GIKIAKKAITIAKKIAKIYW [GW-Q6]" measured_result=8
substance="GWGSFFKKAAHVGKHVGKAALTHYL-NH2 [Pleurocidin]" measured_result=8
substance="GYNYAKKLANLAKKFANALW-NH2 [GW-H1a]" measured_result=8
substance="GWKKWFNRAKKVGKTVGGLAVDHYL-NH2 [NRC12]" measured_result=16
substance="FIHHIIGGLFSAGKAIHRLIRRRRR [TP4]" measured_result=16
substance="GRFKRFRKKFKKLFKKLSPVIPLLHLG [BMAP-27]" measured_result=8
substance="GAKYAKIIYNYLKKIANALW [GW-A2]" measured_result=16
